Values compiled from BindingDB's records for doi:10.1042/BJ20021535.

- assay-system: Casein kinase I isoform delta (Rattus norvegicus, UniProt Q06486)
- Sequence (Q06486 whole entry, canonical isoform): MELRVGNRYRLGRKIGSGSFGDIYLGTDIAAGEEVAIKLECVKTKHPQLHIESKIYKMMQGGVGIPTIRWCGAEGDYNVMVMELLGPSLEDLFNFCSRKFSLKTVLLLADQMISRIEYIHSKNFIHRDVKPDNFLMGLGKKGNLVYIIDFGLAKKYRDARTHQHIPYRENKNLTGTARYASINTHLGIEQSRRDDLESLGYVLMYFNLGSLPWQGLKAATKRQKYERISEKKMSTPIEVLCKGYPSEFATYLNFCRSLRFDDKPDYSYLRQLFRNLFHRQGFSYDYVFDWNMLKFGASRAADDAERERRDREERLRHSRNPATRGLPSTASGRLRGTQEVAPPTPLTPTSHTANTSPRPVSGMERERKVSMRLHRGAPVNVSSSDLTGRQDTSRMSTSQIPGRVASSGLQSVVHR
measured-quantity: Ki (µM)
Value expressed in µM; do not type the unit.

Indicate the recorded Ki value for this molecule: "Nc1ncnc2c1cnn2-c1ccccc1" 9.9

---

- assay-system: Tyrosine-protein kinase Lck (Homo sapiens, UniProt P06239)
- Sequence (P06239 whole entry): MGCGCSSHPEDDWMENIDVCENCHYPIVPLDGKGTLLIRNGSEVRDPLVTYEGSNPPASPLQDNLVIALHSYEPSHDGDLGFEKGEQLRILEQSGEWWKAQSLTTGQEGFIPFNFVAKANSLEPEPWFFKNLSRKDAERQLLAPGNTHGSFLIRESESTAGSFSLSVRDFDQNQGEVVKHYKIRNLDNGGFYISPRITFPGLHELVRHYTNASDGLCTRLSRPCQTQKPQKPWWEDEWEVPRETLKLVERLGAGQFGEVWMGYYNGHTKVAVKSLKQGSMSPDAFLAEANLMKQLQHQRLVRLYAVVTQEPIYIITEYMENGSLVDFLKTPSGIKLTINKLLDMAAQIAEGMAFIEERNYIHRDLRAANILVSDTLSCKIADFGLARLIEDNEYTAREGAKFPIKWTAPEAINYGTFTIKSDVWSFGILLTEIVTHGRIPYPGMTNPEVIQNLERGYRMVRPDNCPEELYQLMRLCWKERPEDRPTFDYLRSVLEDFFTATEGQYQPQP
measured-quantity: pKi
pKi is defined as minus the log10 of a concentration measured in mol/L.

Supply reported pKi belonging to this compound: O=Nc1c(C2C(=O)Nc3ccccc32)[nH]c2ccccc12 (stereo unspecified) 6.52

---

- assay-system: Ninein (Homo sapiens)
- Sequence (Q8N4C6 whole entry): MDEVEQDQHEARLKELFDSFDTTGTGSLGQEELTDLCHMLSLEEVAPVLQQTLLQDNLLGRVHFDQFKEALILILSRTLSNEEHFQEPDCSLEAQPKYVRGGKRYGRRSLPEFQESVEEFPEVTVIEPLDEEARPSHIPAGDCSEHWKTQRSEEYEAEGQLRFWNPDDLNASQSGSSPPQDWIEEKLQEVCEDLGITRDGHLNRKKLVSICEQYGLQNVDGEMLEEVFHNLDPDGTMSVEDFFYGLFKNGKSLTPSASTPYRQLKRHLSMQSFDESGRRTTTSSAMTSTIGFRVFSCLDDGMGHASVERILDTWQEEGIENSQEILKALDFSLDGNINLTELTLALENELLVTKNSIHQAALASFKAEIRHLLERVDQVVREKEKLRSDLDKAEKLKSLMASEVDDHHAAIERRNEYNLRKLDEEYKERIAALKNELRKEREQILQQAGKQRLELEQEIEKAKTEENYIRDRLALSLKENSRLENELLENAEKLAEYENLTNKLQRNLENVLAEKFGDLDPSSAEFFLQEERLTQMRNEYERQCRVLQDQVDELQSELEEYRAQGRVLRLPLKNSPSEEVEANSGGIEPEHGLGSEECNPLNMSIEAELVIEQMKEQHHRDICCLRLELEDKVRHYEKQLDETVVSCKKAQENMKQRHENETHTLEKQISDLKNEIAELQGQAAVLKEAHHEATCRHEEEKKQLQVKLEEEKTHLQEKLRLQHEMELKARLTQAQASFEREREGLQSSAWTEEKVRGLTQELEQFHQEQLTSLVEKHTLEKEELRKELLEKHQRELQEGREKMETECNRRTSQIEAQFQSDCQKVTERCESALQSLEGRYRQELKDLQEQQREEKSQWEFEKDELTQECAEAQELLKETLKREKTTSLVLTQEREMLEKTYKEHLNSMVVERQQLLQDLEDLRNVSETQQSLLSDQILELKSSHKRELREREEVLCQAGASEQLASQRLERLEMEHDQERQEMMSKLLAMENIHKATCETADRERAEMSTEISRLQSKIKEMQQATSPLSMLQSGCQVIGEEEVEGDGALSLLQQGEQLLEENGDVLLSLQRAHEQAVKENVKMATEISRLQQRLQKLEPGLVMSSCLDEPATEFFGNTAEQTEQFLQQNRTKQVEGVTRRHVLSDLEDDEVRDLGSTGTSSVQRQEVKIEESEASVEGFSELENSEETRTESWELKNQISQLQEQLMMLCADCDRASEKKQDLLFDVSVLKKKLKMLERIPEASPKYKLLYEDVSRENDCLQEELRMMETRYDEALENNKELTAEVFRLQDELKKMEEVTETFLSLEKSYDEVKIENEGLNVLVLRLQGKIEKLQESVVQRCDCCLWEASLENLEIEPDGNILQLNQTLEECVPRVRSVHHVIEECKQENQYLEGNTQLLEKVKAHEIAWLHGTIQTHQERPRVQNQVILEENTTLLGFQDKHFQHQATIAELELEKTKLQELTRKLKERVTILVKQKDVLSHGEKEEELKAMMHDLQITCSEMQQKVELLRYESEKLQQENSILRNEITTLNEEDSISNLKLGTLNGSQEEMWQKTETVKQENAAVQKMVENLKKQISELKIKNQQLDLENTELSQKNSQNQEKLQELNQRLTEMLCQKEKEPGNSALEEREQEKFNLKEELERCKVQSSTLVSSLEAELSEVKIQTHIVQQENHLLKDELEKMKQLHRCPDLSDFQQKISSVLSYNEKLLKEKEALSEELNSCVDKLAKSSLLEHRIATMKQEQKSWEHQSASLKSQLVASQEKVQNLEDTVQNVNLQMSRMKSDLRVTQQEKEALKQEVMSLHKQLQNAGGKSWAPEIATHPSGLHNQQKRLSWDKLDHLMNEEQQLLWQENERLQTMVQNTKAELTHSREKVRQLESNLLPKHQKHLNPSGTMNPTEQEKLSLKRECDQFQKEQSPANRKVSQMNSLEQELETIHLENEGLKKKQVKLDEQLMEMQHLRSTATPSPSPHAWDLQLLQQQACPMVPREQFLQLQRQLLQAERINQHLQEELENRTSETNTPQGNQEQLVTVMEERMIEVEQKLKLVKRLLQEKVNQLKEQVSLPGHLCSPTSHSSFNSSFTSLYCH
measured-quantity: Ki
Note to self: number, then unit, no commentary.

Fill: Ki (Ninein (Homo sapiens)) for this molecule O=Nc1c(C2C(=O)Nc3ccccc32)[nH]c2ccccc12 (stereo unspecified) [Indirubin-3 -monoxime] 190 nM

---

- assay-system: UniProt:P24941
measured-quantity: Ki (nM)
Respond numerically; units are nM and should not be typed.

For UniProt:P24941, give the measured Ki of the entry "CC(C)[C@H](CO)Nc1nc(Nc2cccc(Cl)c2)c2ncn(C(C)C)c2n1" 100
